Every entry's value here was drawn from ChEMBL document CHEMBL1148785.

# Test system: Plasmodium falciparum
# method_notes: Inhibition of Plasmodium falciparum protein farnesyltransferase at 0.5 nM by scintillation proximity assay

{"compound": "Cn1cnc(S(=O)(=O)N(CC(=O)NC(C)(C)C)C2Cc3cc(C(=O)NC(C)(C)C)ccc3N(Cc3cncn3C)C2)c1 (configuration not stated)", "tested_on": "Plasmodium falciparum", "uom": "%", "inhibition": 4}
{"compound": "Cn1cnc(S(=O)(=O)N(Cc2ccccc2C(F)(F)F)C2Cc3cc(C#N)ccc3N(Cc3cncn3C)C2)c1 (configuration not stated)", "tested_on": "Plasmodium falciparum", "uom": "%", "inhibition": 36}
{"compound": "Cn1cncc1CN1CC(N(CCn2cccn2)S(=O)(=O)c2ccccn2)Cc2cc(C#N)ccc21 (configuration not stated)", "tested_on": "Plasmodium falciparum", "uom": "%", "inhibition": 68}
{"compound": "Cn1cnc(S(=O)(=O)N(Cc2ccc3cccnc3c2)C2Cc3cc(C#N)ccc3N(Cc3cncn3C)C2)c1 (configuration not stated)", "tested_on": "Plasmodium falciparum", "uom": "%", "inhibition": 37}
{"compound": "CCN(CCCCN(C1Cc2cc(C#N)ccc2N(Cc2cncn2C)C1)S(=O)(=O)c1ccccn1)C(=O)OC(C)(C)C (configuration not stated)", "tested_on": "Plasmodium falciparum", "uom": "%", "inhibition": 6}
{"compound": "Cn1cncc1CN1CC(N(Cc2ccccn2)S(=O)(=O)c2ccccn2)Cc2cc(C#N)ccc21 (configuration not stated)", "tested_on": "Plasmodium falciparum", "uom": "%", "inhibition": 4}
{"compound": "COC(=O)N(C)CCCCN(C1Cc2cc(C#N)ccc2N(Cc2cncn2C)C1)S(=O)(=O)c1ccccn1 (configuration not stated)", "tested_on": "Plasmodium falciparum", "uom": "%", "inhibition": 15}
{"compound": "COC(=O)N1CCC(CN(C2Cc3cc(C#N)ccc3N(Cc3cncn3C)C2)S(=O)(=O)c2ccc3c(c2)OCCCO3)CC1 (configuration not stated)", "tested_on": "Plasmodium falciparum", "uom": "%", "inhibition": 24}
{"compound": "COC(=O)N1CCC(CN(C2Cc3cc(C#N)ccc3N(S(=O)(=O)c3cncn3C)C2)S(=O)(=O)c2ccccn2)CC1 (configuration not stated)", "tested_on": "Plasmodium falciparum", "uom": "%", "inhibition": 0}
{"compound": "Cn1cnc(S(=O)(=O)N(CCc2cccs2)C2Cc3cc(C#N)ccc3N(Cc3cncn3C)C2)c1 (configuration not stated)", "tested_on": "Plasmodium falciparum", "uom": "%", "inhibition": 26}
{"compound": "Cn1cnc(CN2CC(N(CCS(C)(=O)=O)S(=O)(=O)c3cn(C)cn3)Cc3cc(-c4ccccc4)ccc32)c1 (configuration not stated)", "tested_on": "Plasmodium falciparum", "uom": "%", "inhibition": 29}
{"compound": "Cn1cnc(S(=O)(=O)N(Cc2cccnc2)C2Cc3cc(C#N)ccc3N(Cc3cncn3C)C2)c1 (configuration not stated)", "tested_on": "Plasmodium falciparum", "uom": "%", "inhibition": 17}
{"compound": "COC(=O)N1CCC(CN(C2Cc3cc(C#N)ccc3N(Cc3cncn3C)C2)S(=O)(=O)c2cccc3nsnc23)CC1 (configuration not stated)", "tested_on": "Plasmodium falciparum", "uom": "%", "inhibition": 20}
{"compound": "Cc1ccccc1CN(C1Cc2cc(C#N)ccc2N(Cc2cncn2C)C1)S(=O)(=O)c1cn(C)cn1 (configuration not stated)", "tested_on": "Plasmodium falciparum", "uom": "%", "inhibition": 34}
{"compound": "Cn1cnc(S(=O)(=O)N(CCc2ccc(F)cc2)C2Cc3cc(C#N)ccc3N(Cc3cncn3C)C2)c1 (configuration not stated)", "tested_on": "Plasmodium falciparum", "uom": "%", "inhibition": 42}
{"compound": "Cn1cncc1CN1CC(N(CCCCON2C(=O)c3ccccc3C2=O)S(=O)(=O)c2ccccn2)Cc2cc(C#N)ccc21 (configuration not stated)", "tested_on": "Plasmodium falciparum", "uom": "%", "inhibition": 0}
{"compound": "Cn1cnc(CN2CC(N(CC(=O)NC(C)(C)C)S(=O)(=O)c3cccs3)Cc3cc(-c4ccccc4)ccc32)c1 (configuration not stated)", "tested_on": "Plasmodium falciparum", "uom": "%", "inhibition": 4}

* * *

Here, each record is paired with measured inhibition data.
# System: Plasmodium falciparum
# method_notes: Inhibition of Plasmodium falciparum protein farnesyltransferase at 0.5 nM by scintillation proximity assay

{"compound": "CCCC(=O)N1CCC(CN(C2Cc3cc(C#N)ccc3N(Cc3cncn3C)C2)S(=O)(=O)c2ccccn2)CC1 (stereo not drawn)", "inhibition (%)": 63}
{"compound": "Cc1oncc1CN(C1Cc2cc(-c3ccccc3)ccc2N(Cc2cn(C)cn2)C1)S(=O)(=O)c1cn(C)cn1 (stereo not drawn)", "inhibition (%)": 0}
{"compound": "Cn1cnc(S(=O)(=O)N(Cc2ccc(C(F)(F)F)o2)C2Cc3cc(C#N)ccc3N(Cc3cncn3C)C2)c1 (stereo not drawn)", "inhibition (%)": 54}
{"compound": "Cc1c(S(=O)(=O)N(Cc2cc(Br)ccc2F)C2Cc3cc(C#N)ccc3N(Cc3cncn3C)C2)ncn1C (stereo not drawn)", "inhibition (%)": 13}
{"compound": "Cn1cncc1CN1CC(N(CC2CCN(S(C)(=O)=O)CC2)S(=O)(=O)c2ccccn2)Cc2cc(C#N)ccc21 (stereo not drawn)", "inhibition (%)": 93}
{"compound": "Cn1cnc(S(=O)(=O)N(CCN2CCCCC2)C2Cc3cc(C#N)ccc3N(Cc3cncn3C)C2)c1 (stereo not drawn)", "inhibition (%)": 9}
{"compound": "CC(=O)N1CCC(CN(C2Cc3cc(C#N)ccc3N(Cc3cncn3C)C2)S(=O)(=O)c2ccccn2)CC1 (stereo not drawn)", "inhibition (%)": 65}
{"compound": "Cn1cnc(S(=O)(=O)N(Cc2ccccc2F)C2Cc3cc(C#N)ccc3N(Cc3cncn3C)C2)c1 (stereo in doubt; 212)", "inhibition (%)": 12}
{"compound": "Cn1cnc(CN2CC(NS(=O)(=O)c3ccccn3)Cc3cc(-c4ccccc4)ccc32)c1 (stereo not drawn)", "inhibition (%)": 11}
{"compound": "Cn1cnc(S(=O)(=O)N(Cc2ccc(F)cc2)C2Cc3cc(C#N)ccc3N(Cc3cncn3C)C2)c1 (stereo not drawn)", "inhibition (%)": 50}
{"compound": "Cn1cncc1CN1CC(N(CC2CCN(C(=O)CC(C)(C)C)CC2)S(=O)(=O)c2ccccn2)Cc2cc(C#N)ccc21 (stereo not drawn)", "inhibition (%)": 88}
{"compound": "Cn1cncc1CN1CC(N(Cc2ccc(F)cc2)S(=O)(=O)c2ccccn2)Cc2cc(C#N)ccc21 (stereo not drawn)", "inhibition (%)": 11}
{"compound": "CSCCC(=O)N(Cc1ccccc1F)C1Cc2cc(C#N)ccc2N(Cc2cncn2C)C1 (stereo not drawn)", "inhibition (%)": 0}

* * *

Measured pEC50 values are reported for all entries that follow.
# System: Plasmodium falciparum
# method_notes: Antimalarial activity against Plasmodium falciparum K1
# Type: functional
# assay_context: Plasmodium falciparum, K1; read-out: ED50 (the source's name)
pEC50: −log10 of the molar value.
measured_metric: pEC50

{"compound": "Cn1cnc(S(=O)(=O)NC2Cc3cc(-c4ccccc4)ccc3N(Cc3cncn3C)C2)c1 (stereo not drawn)", "result": "< 5.30"}
{"compound": "Cn1cnc(S(=O)(=O)N(CCN)C2Cc3cc(C#N)ccc3N(Cc3cncn3C)C2)c1 (stereo not drawn)", "result": "< 5.30"}
{"compound": "CCN(C1Cc2cc(-c3ccccc3)ccc2N(Cc2cncn2C)C1)S(=O)(=O)c1cn(C)cn1 (stereo not drawn)", "result": "< 5.30"}

* * *

# Tested on: Plasmodium falciparum
# method_notes: Inhibition of Plasmodium falciparum protein farnesyltransferase at 5 nM by scintillation proximity assay

{"compound": "Cn1cnc(CN2CC(N(CC(=O)NC(C)(C)C)S(C)(=O)=O)Cc3cc(-c4ccccc4)ccc32)c1 (stereo unspecified)", "inhibition, %": 0}
{"compound": "C=C(C)C(=O)N1CCC(CN(C2Cc3cc(C#N)ccc3N(Cc3cncn3C)C2)S(=O)(=O)c2ccccn2)CC1 (stereo unspecified)", "inhibition, %": 31}
{"compound": "Cn1cnc(S(=O)(=O)N(CCc2ccccc2C(F)(F)F)C2Cc3cc(C#N)ccc3N(Cc3cncn3C)C2)c1 (stereo unspecified)", "inhibition, %": 82}
{"compound": "CN(C)S(=O)(=O)N(Cc1ccccc1F)C1Cc2cc(C#N)ccc2N(Cc2cncn2C)C1 (stereo unspecified)", "inhibition, %": 10}
{"compound": "Cn1cncc1CN1CC(N(CCCCON2C(=O)c3ccccc3C2=O)S(=O)(=O)c2ccccn2)Cc2cc(C#N)ccc21 (stereo unspecified)", "inhibition, %": 32}
{"compound": "Cn1cnc(S(=O)(=O)N(Cc2ccccc2F)C2Cc3cc(C#N)ccc3N(Cc3cncn3C)C2)c1 (stereo in doubt; 212)", "inhibition, %": 76}

* * *

# Tested on: Plasmodium falciparum
# method_notes: Inhibition of Plasmodium falciparum protein farnesyltransferase at 50 nM by scintillation proximity assay

{"molecule": "Cn1cncc1CN1CC(N(CCCN)S(=O)(=O)c2ccccn2)Cc2cc(C#N)ccc21 (stereo not drawn)", "tested_on": "Plasmodium falciparum", "inhibition (%)": 32}
{"molecule": "Cn1cnc(S(=O)(=O)N(CCc2cccs2)C2Cc3cc(C#N)ccc3N(Cc3cncn3C)C2)c1 (stereo not drawn)", "tested_on": "Plasmodium falciparum", "inhibition (%)": 100}
{"molecule": "Cn1cnc(CN2CC(N(Cc3ccc(C(F)(F)F)o3)S(=O)(=O)c3cn(C)cn3)Cc3cc(-c4ccccc4)ccc32)c1 (stereo not drawn)", "tested_on": "Plasmodium falciparum", "inhibition (%)": 88}
{"molecule": "C=C(Br)CN(C1Cc2cc(C#N)ccc2N(Cc2cnc[nH]2)C1)S(=O)(=O)c1cn(C)cn1 (stereo not drawn)", "tested_on": "Plasmodium falciparum", "inhibition (%)": 94}
{"molecule": "Cn1cnc(CN2CC(N(CCn3cccc3)S(=O)(=O)c3cn(C)cn3)Cc3cc(-c4ccccc4)ccc32)c1 (stereo not drawn)", "tested_on": "Plasmodium falciparum", "inhibition (%)": 90}
{"molecule": "Cn1cncc1CN1CC(N(CC2CCN(S(=O)(=O)c3ccccc3)CC2)S(=O)(=O)c2ccccn2)Cc2cc(C#N)ccc21 (stereo not drawn)", "tested_on": "Plasmodium falciparum", "inhibition (%)": 96}
{"molecule": "Cn1cnc(S(=O)(=O)N(Cc2ccc(C#N)cc2)C2Cc3cc(C#N)ccc3N(Cc3cncn3C)C2)c1 (stereo not drawn)", "tested_on": "Plasmodium falciparum", "inhibition (%)": 96}
{"molecule": "COCC(=O)N(Cc1ccccc1F)C1Cc2cc(C#N)ccc2N(Cc2cncn2C)C1 (stereo not drawn)", "tested_on": "Plasmodium falciparum", "inhibition (%)": 56}
{"molecule": "Cn1cnc(S(=O)(=O)N(CCc2ccccc2)C2Cc3cc(C#N)ccc3N(Cc3cncn3C)C2)c1 (stereo not drawn)", "tested_on": "Plasmodium falciparum", "inhibition (%)": 97}
{"molecule": "Cc1oncc1CN(C1Cc2cc(-c3ccccc3)ccc2N(Cc2cn(C)cn2)C1)S(=O)(=O)c1cn(C)cn1 (stereo not drawn)", "tested_on": "Plasmodium falciparum", "inhibition (%)": 79}
{"molecule": "COC(=O)N(Cc1ccccc1F)C1Cc2cc(C#N)ccc2N(Cc2cncn2C)C1 (stereo not drawn)", "tested_on": "Plasmodium falciparum", "inhibition (%)": 26}
{"molecule": "COC(=O)N1CCC(CN(C2Cc3cc(C#N)ccc3N(Cc3cncn3C)C2)S(=O)(=O)c2cn(C)c(C)n2)CC1 (stereo not drawn)", "tested_on": "Plasmodium falciparum", "inhibition (%)": 100}
{"molecule": "COC(=O)N1CCC(CN(C2Cc3cc(C#N)ccc3N(Cc3cncn3C)C2)S(=O)(=O)c2cccnc2)CC1 (stereo not drawn)", "tested_on": "Plasmodium falciparum", "inhibition (%)": 99}
{"molecule": "Cc1noc(C)c1CN(C1Cc2cc(C#N)ccc2N(Cc2cncn2C)C1)S(=O)(=O)c1cn(C)cn1 (stereo not drawn)", "tested_on": "Plasmodium falciparum", "inhibition (%)": 100}
{"molecule": "Cn1cncc1CN1CC(N(CC2CCN(C(=O)CNC(=O)OC(C)(C)C)CC2)S(=O)(=O)c2ccccn2)Cc2cc(C#N)ccc21 (stereo not drawn)", "tested_on": "Plasmodium falciparum", "inhibition (%)": 88}
{"molecule": "Cn1cnc(S(=O)(=O)N(Cc2cc3nsnc3cc2Cl)C2Cc3cc(C#N)ccc3N(Cc3cncn3C)C2)c1 (stereo not drawn)", "tested_on": "Plasmodium falciparum", "inhibition (%)": 90}
{"molecule": "COC(=O)N1CCC(CN(C2Cc3cc(C#N)ccc3N(Cc3cncn3C)C2)S(=O)(=O)c2cccc3nonc23)CC1 (stereo not drawn)", "tested_on": "Plasmodium falciparum", "inhibition (%)": 99}
{"molecule": "Cn1cncc1CN1CC(N(CC2CCN(C(=O)c3cccs3)CC2)S(=O)(=O)c2ccccn2)Cc2cc(C#N)ccc21 (stereo not drawn)", "tested_on": "Plasmodium falciparum", "inhibition (%)": 99}
{"molecule": "Cn1cnc(S(=O)(=O)N(Cc2ccc(C(=O)O)cc2)C2Cc3cc(C#N)ccc3N(Cc3cncn3C)C2)c1 (stereo not drawn)", "tested_on": "Plasmodium falciparum", "inhibition (%)": 66}
{"molecule": "CCCC(=O)N1CCC(CN(C2Cc3cc(C#N)ccc3N(Cc3cncn3C)C2)S(=O)(=O)c2ccccn2)CC1 (stereo not drawn)", "tested_on": "Plasmodium falciparum", "inhibition (%)": 95}
{"molecule": "Cn1cncc1CN1CC(N(CCC2(C)OCC(C)(C)CO2)S(=O)(=O)c2ccccn2)Cc2cc(C#N)ccc21 (stereo not drawn)", "tested_on": "Plasmodium falciparum", "inhibition (%)": 95}
{"molecule": "CCS(=O)(=O)N(CC1CCN(C(=O)OC)CC1)C1Cc2cc(C#N)ccc2N(Cc2cncn2C)C1 (stereo not drawn)", "tested_on": "Plasmodium falciparum", "inhibition (%)": 44}
{"molecule": "CCCS(=O)(=O)N(CC1CCN(C(=O)OC)CC1)C1Cc2cc(C#N)ccc2N(Cc2cncn2C)C1 (stereo not drawn)", "tested_on": "Plasmodium falciparum", "inhibition (%)": 55}
{"molecule": "Cn1cnc(CN2CC(N(CC(=O)NC(C)(C)C)S(=O)(=O)c3cccs3)Cc3cc(-c4ccccc4)ccc32)c1 (stereo not drawn)", "tested_on": "Plasmodium falciparum", "inhibition (%)": 10}
{"molecule": "Cn1cncc1CN1CC(N(CCn2cccn2)S(=O)(=O)c2ccccn2)Cc2cc(C#N)ccc21 (stereo not drawn)", "tested_on": "Plasmodium falciparum", "inhibition (%)": 99}
{"molecule": "Cn1cnc(S(=O)(=O)N(Cc2ccc3ccccc3c2Br)C2Cc3cc(C#N)ccc3N(Cc3cncn3C)C2)c1 (stereo not drawn)", "tested_on": "Plasmodium falciparum", "inhibition (%)": 69}
{"molecule": "Cn1cncc1CN1CC(N(CC2CCN(C(=O)OCc3ccccc3)CC2)S(=O)(=O)c2ccccn2)Cc2cc(C#N)ccc21 (stereo not drawn)", "tested_on": "Plasmodium falciparum", "inhibition (%)": 98}
{"molecule": "Cn1cncc1CN1CC(N(CC(=O)O)S(=O)(=O)c2ccccn2)Cc2cc(C#N)ccc21 (stereo not drawn)", "tested_on": "Plasmodium falciparum", "inhibition (%)": 81}
